Cited source for all entries: paper PMC5161585

- experimental.system: δOR (Homo sapiens, UniProt P41143)
- Sequence (P41143 whole entry): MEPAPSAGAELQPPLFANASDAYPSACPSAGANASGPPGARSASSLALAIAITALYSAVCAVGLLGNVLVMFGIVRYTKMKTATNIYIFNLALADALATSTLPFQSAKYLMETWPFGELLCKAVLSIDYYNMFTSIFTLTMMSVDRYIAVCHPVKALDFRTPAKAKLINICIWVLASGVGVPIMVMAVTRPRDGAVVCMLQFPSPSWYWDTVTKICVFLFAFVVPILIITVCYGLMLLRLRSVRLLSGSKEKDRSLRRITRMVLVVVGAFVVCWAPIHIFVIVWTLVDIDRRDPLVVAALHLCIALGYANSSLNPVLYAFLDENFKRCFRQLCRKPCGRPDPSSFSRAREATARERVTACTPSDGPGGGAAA
- experiment: Gi/o Glosensor assay at δOR
- Type: cell-based
- stated.conditions: read-out: δOR Gi/o (Glosensor) EC50
measured.parameter: EC50 (µM)

1) C[C@@H](Cc1ccsc1)NC(=O)NC[C@H](Cc1ccc(O)cc1)N(C)C    1.9

----------
- experimental.system: δOR (Homo sapiens)
measured.parameter: Ki (nM)

1) C[C@@H](Cc1ccsc1)NC(=O)NC[C@H](Cc1ccc(O)cc1)N(C)C [PZM21]    506
